Assay: Cytotoxicity against human A549 cells by SRB assay
Type: toxicity, cell-based
Measured endpoint: CC50 (µM)
Answer format: numeric, µM implied, no suffix.

Here is how some molecules turned out for CC50.
>>> df
                                   molecule  measured_endpoint  value_measured
0  CCC(CC)O[C@@H]1C=C(C(=O)O)C[C@H](N)[C@H]1NC(C)=O [OSELTAMIVIR CARBOXYLATE]               CC50            61.2
1  COc1ccc(C(=O)N/N=C(\C)c2ccc(NC(=O)Cc3cccs3)cc2)cc1               CC50            37.6

We next turn to a different molecule, shown below.
Query: CC50; subject: `C/C(=N\NC(=O)c1ccc(F)cc1)c1ccc(NC(=O)Cc2cccs2)cc1` 55.3
